# Assay Target: T1, AFP158/HLA-A*02:01 complex (human)
# T1 construct: flowed over the chip in SPR; also called AFP158 pro
# Test Method Notes: SPR, KD ratio to AS170036 VL1VH1;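 note: crude scFv captured on a sensor chip, peptide–HLA complex passed over at several concentrations, association then buffer dissociation, KD derived from on- and off-rates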
Measurement Name: Affinity increase (fold)
The reply should contain only the number, in fold.

Problem: For the binder shown here, HS57H (scFv, AS170036 VL1VH1 scFv mutein; also called AS170036 VL1VH1-VHS57H) scFv: QSALTQPRSVSGSPGQSVTISCAGTSSDVGSENYVSWYQQHPGKAPKLMIYQVNKRASGVPDRFSGSKSGNTASLTISGLQAEDEADYYCASYRSSDHNIVFGGGTKLTVLGGGGSGGGGSGGGGSEVQLVESGGGLVQPGGSLRLSCAASGFTFSSYAMSWVRQAPGKGLEWVSTINSGTGHPYYADSVKGRFTISRDNSKNTLYLQMNSLRAEDTAVYYCAKNFFDGSWFLGPPAMDYWGQGTLVTVSSHHHHHH , give the reported Affinity increase.
Result: 6.9

Problem: Now consider HG108D (scFv, AS170036 VL1VH1 scFv mutein; also called AS170036 VL1VH1-VHG108D) scFv: QSALTQPRSVSGSPGQSVTISCAGTSSDVGSENYVSWYQQHPGKAPKLMIYQVNKRASGVPDRFSGSKSGNTASLTISGLQAEDEADYYCASYRSSDHNIVFGGGTKLTVLGGGGSGGGGSGGGGSEVQLVESGGGLVQPGGSLRLSCAASGFTFSSYAMSWVRQAPGKGLEWVSTINSGTGSPYYADSVKGRFTISRDNSKNTLYLQMNSLRAEDTAVYYCAKNFFDGSWFLDPPAMDYWGQGTLVTVSSHHHHHH .
Result: 5.5

Problem: Similarly, HP110Q (scFv, AS170036 VL1VH1 scFv mutein) scFv: QSALTQPRSVSGSPGQSVTISCAGTSSDVGSENYVSWYQQHPGKAPKLMIYQVNKRASGVPDRFSGSKSGNTASLTISGLQAEDEADYYCASYRSSDHNIVFGGGTKLTVLGGGGSGGGGSGGGGSEVQLVESGGGLVQPGGSLRLSCAASGFTFSSYAMSWVRQAPGKGLEWVSTINSGTGSPYYADSVKGRFTISRDNSKNTLYLQMNSLRAEDTAVYYCAKNFFDGSWFLGPQAMDYWGQGTLVTVSSHHHHHH ?
Result: 0.9
